Biological target: human recombinant P2X7 receptors (Homo sapiens, UniProt Q99572)
Construct: expressed in transfected cells; host or cells: HEK293
Sequence (Q99572 whole entry): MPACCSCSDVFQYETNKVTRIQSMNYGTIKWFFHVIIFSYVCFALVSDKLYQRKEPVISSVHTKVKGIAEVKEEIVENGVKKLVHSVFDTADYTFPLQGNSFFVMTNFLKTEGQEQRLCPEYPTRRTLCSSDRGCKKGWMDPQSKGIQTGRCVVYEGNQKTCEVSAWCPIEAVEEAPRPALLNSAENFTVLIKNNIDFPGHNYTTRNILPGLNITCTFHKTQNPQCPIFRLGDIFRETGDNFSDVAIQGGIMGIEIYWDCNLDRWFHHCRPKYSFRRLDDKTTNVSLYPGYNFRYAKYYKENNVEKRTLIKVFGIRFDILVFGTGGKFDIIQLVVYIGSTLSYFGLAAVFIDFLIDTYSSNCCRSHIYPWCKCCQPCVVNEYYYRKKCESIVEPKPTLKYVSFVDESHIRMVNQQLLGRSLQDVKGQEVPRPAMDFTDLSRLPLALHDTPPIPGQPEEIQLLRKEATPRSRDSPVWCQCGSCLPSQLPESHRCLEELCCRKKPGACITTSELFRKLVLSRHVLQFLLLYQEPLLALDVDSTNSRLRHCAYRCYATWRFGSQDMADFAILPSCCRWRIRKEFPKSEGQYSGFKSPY
Assay: Ethidium Accumulation Assay
Type: cell-based
Conditions: HEK293 cells expressing human recombinant P2X7; 1 mM ATP, 100 μM ethidium; 30 min preincubation at room temperature; read-out: Antagonist pIC50 for blocking ATP responses (cellular accumulation of ethidium) (converted)
assay.endpoint: IC50

Task: Recorded IC50 for CN1C(=O)c2ccccc2C1C(=O)NCc1ccc(F)cc1Cl (stereo not drawn) [Example 6] with human recombinant P2X7 receptors (Homo sapiens, UniProt Q99572), please?
Output: ≤ 631 nM

Task: Thanks! And CN1C(=O)c2ccccc2C1C(=O)NCc1ccc(Cl)cc1Cl (stereo not drawn) [Example 5] ?
Output: ≤ 126 nM

Task: Can you check CN1C(=O)c2ccccc2C1C(=O)NCc1cccc(C(F)(F)F)c1Cl (stereo not drawn) [Example 7] next?
Output: ≤ 126 nM

Next:
Task: I'm curious: which IC50 was measured for CCN1C(=O)c2ccccc2C1C(=O)NCc1ccc(Cl)cc1Cl (stereo not drawn) [Example 2] tested on human recombinant P2X7 receptors (Homo sapiens, UniProt Q99572)?
Output: ≤ 631 nM

Task: // repeat for CC1=CC(=O)N(C2CC2)C1C(=O)NCc1ccc(Cl)cc1Cl (stereo not drawn) [Example 1] and report
Output: ≤ 631 nM

Task: One more compound: CCN1C(=O)c2ccccc2C1C(=O)NCc1cccc(C(F)(F)F)c1Cl (stereo not drawn) [Example 4]
Output: ≤ 126 nM
